# System: Fibrinogen (Alexa647-labelled)
# Protocol description: fibrinogen binders on compound microarrays, profiling panel, artefact control for SMM control-protein annotation, biochemical, small-molecule microarray, 635/667 nm fluorescence (AID 1131);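 further: z-score merges 667 nm fluorescence with per-spot signal-to-noise over triplicate slides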
# Experimental conditions: fibrinogen-A647 binding fluorescence, higher = more signal

- Compound: "Cc1ccc(S[C@]2(C(=O)NCC(F)(F)F)CC(=O)N(Cc3ccccc3)[C@@H]2c2ccc(CO)cc2)cc1"
  composite z-score: -1.16
- Compound: "CON(C)C(=O)C=C1C[C@@H](c2cccc(Cl)c2)O[C@@H](c2cccc(Cl)c2)O1"
  composite z-score: 0.472
- Compound: "COCCOC(=O)N1C(=O)[C@@]2(c3cc(C#CCNC(N)=O)ccc31)[C@H](C(=O)N1CCCCCCC1)[C@H]1C(=O)O[C@H](c3ccccc3)[C@H](c3ccccc3)N1[C@@H]2c1ccc(O)cc1"
  composite z-score: 0.391
- Compound: "C=CC[C@@]1(C(=O)N2CCCCC2)N=C(c2ccc(OCCCO)cc2)O[C@@H]1c1ccccc1"
  composite z-score: 0.935
- Compound: "COc1ccc(CCNC(=O)[C@@]2(Sc3ccc(C)cc3)CC(=O)N(Cc3cc(C(F)(F)F)cc(C(F)(F)F)c3)[C@@H]2c2ccc(CO)cc2I)cc1"
  composite z-score: 0.562
- Compound: "[N-]=[N+]=Nc1ccccc1[C@H]1OC(c2ccc(OCCCO)cc2)=N[C@@]1(CCS(=O)(=O)c1ccccc1)C(=O)N1CCCCC1"
  composite z-score: 0.989
- Compound: "CC(C)C(=C=CC[C@@H](O)c1ccccc1OCCO)C[C@@H](O)COCc1ccccc1"
  composite z-score: 0.807
- Compound: "O=C1O[C@@H](c2ccccc2)[C@@H](c2ccccc2)N2[C@@H](c3ccc(O)cc3)[C@]3(C(=O)Nc4ccc(C#CCCO)cc43)[C@@H](C(=O)Nc3nc4ccccc4s3)[C@H]12"
  composite z-score: 0.682
- Compound: "CC1CC/C=C\\[C@H]2OC34C=CCN(C(C)C)C(=O)[C@H]3N(CCCCCO)C(=O)[C@@H]4C2C(=O)O1 (some centres undefined)"
  composite z-score: -1.29
- Compound: "COc1ccc(C(O)C2C=CC3C(=O)N(c4ccccc4)C(=O)C3N2Nc2ccccc2)cc1OCc1ccccc1 (centres undefined)"
  composite z-score: 0.942
- Compound: "COC(=O)[C@@]1(Cc2ccccc2)[C@H]2c3cc(C(=O)N4CCCC4)n(C[C@H](O)CO)c3C[C@H]2CN1C(=O)c1ccccc1"
  composite z-score: -0.455
- Compound: "Cc1c(NC(=O)/C(C#N)=C/C=C/c2ccccc2[N+](=O)[O-])c(=O)n(-c2ccccc2)n1C"
  composite z-score: 0.867
- Compound: "C[C@]1(C(=O)NC2CC2)c2ccccc2C(=O)N(Cc2ccc(OC(F)(F)F)cc2)[C@H]1c1ccc(CO)cc1"
  composite z-score: -0.796
- Compound: "C#CCNC(=O)[C@H](Cc1ccccc1)NC(=O)[C@@H](N=[N+]=[N-])C(C)C"
  composite z-score: 0.694
- Compound: "C=CCOC(=O)[C@@H]1[C@H]2C(=O)O[C@H](c3ccccc3)[C@H](c3ccccc3)N2[C@H](c2ccc(OCCOC(=O)[C@H]3C[C@H]4C(=O)N[C@@H](CCCC[N+](C)(C)C)C(=O)N4[C@H]3c3ccc(O)cc3)cc2)[C@@]12C(=O)Nc1ccc(I)cc12"
  composite z-score: 0.542
- Compound: "C=C(/C(=C/C[C@@H](OC(=O)c1ccncc1)c1ccccc1OCCO)c1cc(C(=O)OC)ccc1OC)C(C)C"
  composite z-score: -0.325
- Compound: "CC(C)(C)OC(=O)CC[C@]1(C(=O)O)N=C(c2ccc(OCCCO)cc2)O[C@H]1c1ccccc1CN=[N+]=[N-]"
  composite z-score: -0.0709
- Compound: "NC(=O)NCC#Cc1ccc2c(c1)[C@]1(C(=O)N2)[C@H](C(=O)O)[C@H]2C(=O)O[C@H](c3ccccc3)[C@H](c3ccccc3)N2[C@@H]1c1ccccc1OCCO"
  composite z-score: 0.809
- Compound: "O=C(CS)NCCCCCCNC(=O)[C@H]1C[C@H]2C(=O)N[C@@H](Cc3ccccc3)C(=O)N2[C@H]1c1cccc(OCCO)c1"
  composite z-score: 0.93

Origin of measurements: PubChem BioAssay
